melting point values for the molecules below.

Previously resolved entries follow.
[
  {
    "molecule": "O=S(=O)(NO)c1ccccc1F [Compound 1, 2-Fluoro-N-hydroxybenzenesulfonamide]",
    "melting point": "127 to 129 °C"
  },
  {
    "molecule": "O=S(=O)(NO)c1ccccc1Cl [Compound 2, 2-Chloro-N-hydroxybenzenesulfonamide]",
    "melting point": "152 to 155 °C (dec.)"
  },
  {
    "molecule": "O=S(=O)(NO)c1ccccc1C(F)(F)F",
    "melting point": "124 to 127 °C (dec.)"
  },
  {
    "molecule": "O=S(=O)(NO)c1ccccc1Br [Compound 3, 2-Bromo-N-hydroxybenzenesulfonamide]",
    "melting point": "156 to 159 °C (dec.)"
  },
  {
    "molecule": "O=S(=O)(NO)c1ccc(C(F)(F)F)cc1",
    "melting point": "117 to 121 °C (dec.)"
  }
]

Consider the record given below.
The recorded melting point for entry N#Cc1ccc(S(=O)(=O)NO)cc1 [Compound 9, 4-Cyano-N-hydroxybenzenesulfonamide] equals 151 to 155 °C (dec.)

----------
assay: Decomposition kinetics (HNO release) monitored by UV-Vis spectroscopy; assay type: physicochemical; details: aerated 0.1 M PBS buffer, pH 7.4, decomposition half-life, aerated 0.1 M PBS buffer, pH 7.4, 37° C.; compounds 5, 7-10 not first-order, approximate half-lives; read-out: t1/2 (air)
log10(half-life) values for the molecules below.
Values reflect log10 of reported half-life (min).

[
  {
    "molecule": "O=S(=O)(NO)c1ccccc1F [Compound 1, 2-Fluoro-N-hydroxybenzenesulfonamide]",
    "value.observed": 0.43
  }
]

The recorded log10(half-life) for entry O=S(=O)(NO)c1ccc(C(F)(F)F)cc1 equals 0.85

The recorded log10(half-life) for entry O=S(=O)(NO)c1ccc(F)cc1 [Compound 7, 4-Fluoro-N-hydroxybenzenesulfonamide] equals 1.00

The recorded log10(half-life) for entry N#Cc1ccc(S(=O)(=O)NO)cc1 [Compound 9, 4-Cyano-N-hydroxybenzenesulfonamide] equals 0.60

----------
assay: Decomposition kinetics (HNO release) monitored by UV-Vis spectroscopy; type: physicochemical; details: argon-saturated 0.1 M PBS buffer, pH 7.4, decomposition half-life, argon-saturated 0.1 M PBS buffer, pH 7.4, 37° C.; compounds 5, 7-10 not first-order, approximate half-lives; read-out: t1/2 (Ar)
measured.attribute: log10 of half-life (log10 of the value in min)
Values reflect log10 of reported half-life (min).

[
  {
    "compound": "N#Cc1ccc(S(=O)(=O)NO)cc1 [Compound 9, 4-Cyano-N-hydroxybenzenesulfonamide]",
    "log10 of half-life": 1.25
  }
]

The recorded log10 of half-life for entry O=S(=O)(NO)c1ccc(F)cc1 [Compound 7, 4-Fluoro-N-hydroxybenzenesulfonamide] equals 1.86

The recorded log10 of half-life for entry O=S(=O)(NO)c1ccccc1Br [Compound 3, 2-Bromo-N-hydroxybenzenesulfonamide] equals 0.02

The recorded log10 of half-life for entry O=S(=O)(NO)c1ccccc1F [Compound 1, 2-Fluoro-N-hydroxybenzenesulfonamide] equals 1.24

The recorded log10 of half-life for entry O=S(=O)(NO)c1ccccc1C(F)(F)F equals -0.02

The recorded log10 of half-life for entry O=S(=O)(NO)c1ccc(C(F)(F)F)cc1 equals 1.52

The recorded log10 of half-life for entry O=S(=O)(NO)c1ccccc1Cl [Compound 2, 2-Chloro-N-hydroxybenzenesulfonamide] equals 0.56
